systemTested: T1, Recombinant human IL13 (PeproTech) (human, UniProt P35225 35-146, limits assumed)
T1 construct: Bought reagent; also called interleukin 13
T1 sequence (P35225 35-146 limits assumed): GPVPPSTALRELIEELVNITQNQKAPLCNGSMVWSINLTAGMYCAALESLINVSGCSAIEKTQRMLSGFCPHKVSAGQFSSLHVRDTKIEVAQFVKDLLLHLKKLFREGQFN
protocolNotes: SPR, BIAcore 3000, IL-13 amine-coupled to CM5 sensor chip (7700 RU), peptide as analyte
propertyMeasured: Kd

I am curious: what Kd value has been reported for GSETWKTIITKN (Made by solid phase synthesis; also called peptide IL13Rα2 D1; L-version) [IL13Rα2D1 peptide (GSETWKTIITKN)] ?
~100 µM
